Here the recorded OD450 is given for each entry.
- System: T1, human MSLN-R1-his protein (human, UniProt Q13421 296-390)
- T1 construct: Self-made in HEK293E cells; also called human MSLN-R1 protein; hMSLN-R1-his; not shown: His tag
- T1 chain: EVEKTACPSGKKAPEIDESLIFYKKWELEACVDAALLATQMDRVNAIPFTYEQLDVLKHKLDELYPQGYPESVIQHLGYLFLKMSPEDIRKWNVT
- Protocol description: ELISA on coated antigen, antibody 1 nM
Your answer should be a plain number; it is taken to be in OD450.

Some solved entries appear below for comparison.
[
  {
    "Binder": "S009-F3.74.20 (antibody, human IgG1, kappa, V domains shown, Human-murine chimeric antibody: murine VH/VL on human IgG1 heavy and kappa light constant regions) VH: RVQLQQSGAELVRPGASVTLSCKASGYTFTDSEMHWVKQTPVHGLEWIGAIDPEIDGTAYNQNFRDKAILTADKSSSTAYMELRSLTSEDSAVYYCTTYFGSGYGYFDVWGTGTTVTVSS VL: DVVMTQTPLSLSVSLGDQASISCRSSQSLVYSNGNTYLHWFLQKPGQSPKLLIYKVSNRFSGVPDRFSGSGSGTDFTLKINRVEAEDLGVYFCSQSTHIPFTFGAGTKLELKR",
    "OD450, OD450": 0.07
  },
  {
    "Binder": "S009-F3.80.22 (antibody, human IgG1, kappa, V domains shown, Human-murine chimeric antibody: murine VH/VL on human IgG1 heavy and kappa light constant regions) VH: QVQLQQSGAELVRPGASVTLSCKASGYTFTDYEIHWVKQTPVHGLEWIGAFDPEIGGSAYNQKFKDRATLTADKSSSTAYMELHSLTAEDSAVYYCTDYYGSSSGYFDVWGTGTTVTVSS VL: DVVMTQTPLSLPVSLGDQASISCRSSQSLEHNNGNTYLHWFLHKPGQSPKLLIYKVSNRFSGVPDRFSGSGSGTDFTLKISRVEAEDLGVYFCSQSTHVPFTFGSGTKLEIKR",
    "OD450, OD450": 0.05
  }
]

Read the next record carefully.
Task item: Given the entry S009-F3.7.3 (antibody, human IgG1, kappa, V domains shown, Human-murine chimeric antibody: murine VH/VL on human IgG1 heavy and kappa light constant regions) VH: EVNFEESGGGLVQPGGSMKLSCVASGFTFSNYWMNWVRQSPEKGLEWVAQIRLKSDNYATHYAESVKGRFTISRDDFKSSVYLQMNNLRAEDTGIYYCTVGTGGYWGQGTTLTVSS VL: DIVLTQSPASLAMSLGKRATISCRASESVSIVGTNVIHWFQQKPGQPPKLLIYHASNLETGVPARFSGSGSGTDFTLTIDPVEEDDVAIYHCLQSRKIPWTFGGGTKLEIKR , report its measured OD450.
Reply: 0.07
